tested on: MS2 coat protein; assay: apparent KD of MS2 coat protein; designed switch direction (-1 OFF switch, 1 ON switch): -1; higher = weaker reporter binding; conditions: input ligand: microRNA oligo, concentration not stated
Decision: apparent KD of MS2 coat protein compared against 40 nM; not below it gives Fulfilled, below it gives Not fulfilled.

Polymer sequence: ACAUGAGGAUCACCCAUGUCCGGCUGGUCUGUCUCGGCUGUCGAGGAUAUAGCACGGUAUCCGCGCUAGAAGGCGGGAGCCGGU [Aenatbe mod 87] (Eterna round: R96, puzzle: Exclusion NG 3)
Group: Not fulfilled
//
Polymer sequence: AUUAUAUAGACAGGAUAUUGAUUAUUAUUUUAACAUGAGGAUCACCCAUGUAACCUUAUGUAUAGCAAGAAGGGUCAUUUAUUA [Title] (Eterna round: R96, puzzle: Exclusion NG 2)
Group: Fulfilled
//
Polymer sequence: GCUCUUGGGCAAGGAUAUCCUGCGCGGUUCCGGUUCGUGUCUGUCACAUGAGGAUCACCCAUGUGGGAGAAGGUGCCUGCGGUG [Design 74] (Eterna round: R96, puzzle: Exclusion NG 2)
Group: Not fulfilled
//
Polymer sequence: UACAUGAGGAUCACCCAUGUUUUGUCGUGUAUGGUAUUUAUCUAGGAUAUCAAUUGAAUUAUUUAUGAGAAGGAGAAUAUUAAU [JMF's solution 58] (Eterna round: R96, puzzle: Exclusion NG 3)
Group: Not fulfilled
//
Polymer sequence: AGUCAGGCGGUAGGAUAUCCAAACCGAGUGACCCUUUCAUAACAUGAGGAUCACCCAUGUCGGUGGGAGAAGGGCCGUACGGCA [Mat - Exclusion NG 2 - Mod of JL - D65] (Eterna round: R96, puzzle: Exclusion NG 2)
Group: Fulfilled

----------
tested on: MS2 coat protein; test: apparent KD of MS2 coat protein, switch ON state; designed switch direction (-1 OFF switch, 1 ON switch): -1; higher = weaker reporter binding; settings: FMN input: 0 or 200 uM; Eterna round: R93 (includes R88 designs)
Class definitions on apparent KD of MS2 coat protein: zone 1 = under 30 nM, zone 2 = from 30 nM up to 50 nM, zone 3 = 50 nM and over

Polymer sequence: AAAAAGUGAGGAUAUACAUGAGGAUCACCCAUGUUAAGGUAAUAUAUAUAUAUAUAUAGUAGAAGGCACAAAAA [Default title]
Group: zone 2
//
Polymer sequence: AAAAAGUGAGGAUAUGUCAAAAGUCACAAAAGUGACAAAAGACAGAAGGCACAUGAGGAUCACCCAUGUGAGGG [Mod of Eli - Late G + early G segment 4]
Group: zone 3
//
Polymer sequence: AAAAAGGUAGGAUAUACGAAAAAAAAGGGUAAAAUAAAUAAACAUGAGGAUCACCCAUGUAGAAGGACCAAAAA [Mat - Exclusion 2 - Tesla mod - D38]
Group: zone 1
//
Polymer sequence: AAGGUUGGAGGAUAUACAUAGAUACAGAUACAUGUAGACGUACAUGAGGAUCACCCAUGUAGAAGGCCAAUAUA [Mat - Same state - Mayanna Mod - D146]
Group: zone 3
//
Polymer sequence: AGAAAACAUGAGGAUCACCCAUGUGAGGAUAUGAAAAAGAAAAGAAAAGAAAGAAGAAUCAGAAGGCACAAGAA [Weneg]
Group: zone 1
//
Polymer sequence: AGAAUACAUGAGGAUCACCCAUGUGAGGAUAUGCAGAUAAAAAUAAAAUAAAAUAAAUGCAGAAGGCACGAAAG [EX 1 May 21]
Group: zone 2
//
Polymer sequence: AAUGGUGGAGGAUAUACAUGAGGAUCACCCAUGUAAAUCACACAUGUGGUCAAAGCAUGUAGAAGGCCACUAAA [Ex 3May 52]
Group: zone 3
//
Polymer sequence: GUGUACAGAGGAUAUAUAUAAGCAUGGAAACAUGCAAGAUCACAUGAGGAUCACCCAUGUAGAAGGCUGUACAC [Ex2: 737]
Group: zone 1
//
Polymer sequence: AACAGUACAGGAUAUACAUGAGGAUCACCCAUGUGAAAAUUAAGUGGGAGACCACAAAGUAGAAGGGUACUGAA [Mat - Exclusion 3 - Eli mod - D60]
Group: zone 3
//
Polymer sequence: AAAAAGUGAGGAUAUGUCAAAAGUCACAAAAGUGACAAAAGACAGAAGGCACAUGAGGAUCACCCAUGUGGAAA [Mod of Eli - Late G + early G segment 2]
Group: zone 2
//
Polymer sequence: AAAUAGCAAGGAUAUACAUGAGGAUCACCCAUGUAAGGAUGAUACGUAAUAGAAGAAAGUAGAAGGUGCAAAUA [Ex 3 Tesla 6]
Group: zone 2
//
Polymer sequence: AACAGUACAGGAUAUACAUGAGGAUCACCCAUGUGAAAAUUAAGUGGAGAACCACAAGGUAGAAGGGUACUGGA [Mat - Exclusion 3 - Eli mod - D62]
Group: zone 2
//
Polymer sequence: AACAAACAUGAGGAUCACCCAUGUCAGGAUAUGCAAAUAACAAACAACAAACAACAAAGCAGAAGGGACGACAA [Mat - Exclusion 1 - Eli mod - D51]
Group: zone 1
//
Polymer sequence: AAAGUGUAAGGAUAUCUGAAAGGACACGAAAGUGACAAAGAAGAGAAGGUACAUGAGGAUCACCCAUGUAAAAA [milkweed 21]
Group: zone 1
//
Polymer sequence: AAAAGUUCAGGAUAUACAUGAGGAUCACCCAUGUAGAAAGGAAGUGUAAAAAAAAAGUGUAGAAGGGAGCAUGA [MS2 Riboswitches On Chip Exclusion 3 wbt2]
Group: zone 1
//
Polymer sequence: UUUAUGUGAGGAUAUACGAAUAGUAAGUAAGUCUUACAGACGUAGAAGGCACAUGAGGAUCACCCAUGUGAACC [JR_Exc004_Sub309]
Group: zone 2
//
Polymer sequence: AAAAAGUCAGGAUAUACAGAAAAAAAAACGAAAAAAAAUCUGUAGAAGGGACAUGAGGAUCACCCAUGUAAAAA [Ex 4 May 12]
Group: zone 2
//
Polymer sequence: GAAGAACAUGAGGAUCACCCAUGUCAGGAUAUGCGGAAGGGAAUAAUAACUUCCGGAAGCAGAAGGGACAAGAA [Ex 1 May 49]
Group: zone 2
//
Polymer sequence: AAGAAGUGAGGAUAUACAUGAAAGAAAGAAAAGAAAAGAAAACAUGAGGAUCACCCAUGUAGAAGGCACAAGAA [EteRNA is fun!]
Group: zone 1
//
Polymer sequence: AACAUGUAAGGAUAUCUAAGAAAAGAAAAGAAAGAAAAGAAAGAGAAGGUACAUGAGGAUCACCCAUGUAAGAA [EteRNA is fun!]
Group: zone 2
//
Polymer sequence: AAAAAACAUGAGGAUCACCCAUGUAAGGAUAUCUAAAAUAAAAGAAAAAUAAAGAAAAGGAGAAGGUACAUGAA [JL wbt mod 21]
Group: zone 1
//
Polymer sequence: AGAAAGUGAGGAUAUACAUGAGGAUCACCCAUGUAGAACGAGAGUUAUAAAAAUGGAAGUAGAAGGCGCAAAAG [water's exclusion 3 2nd]
Group: zone 1

----------
Entries and their measured apparent KD of K4 kissing-loop reporter follow.
test system: K4 kissing-loop RNA reporter; test: apparent KD of K4 kissing-loop reporter; higher = weaker reporter binding; conditions: Eterna round: R107; input ligand: tryptophan 2.4 mM

Polymer sequence: AAUGUAUUCCACAUGAGUGAUGUUCAUGUGCGAGGACCGGUACGGCCGCCACUCGCAGUUGUGAUCAGUUCUGAAUACAUUAAUG [KL-XTryp-A3]
apparent KD of K4 kissing-loop reporter [nM]: 331

Polymer sequence: GUUACGCAUGGAAGGAGCGCAGGCUCAACUUGAAGCUCAGUGAUGUUGAGCAAAUUAAAACUGCAGGUAGGUCGCCAUGUGUAAC [Ex Arginine B K4 27]
apparent KD of K4 kissing-loop reporter [nM]: 448

Polymer sequence: UCGAACGAUGGAAGGAGCGCUCGUCAGUCCUGCGAGUGAUGUUCGUGGGUAAAUAGUCGCGAGCAGGUAGGUCGCCAUCUUGGGC [Reriat]
apparent KD of K4 kissing-loop reporter [nM]: 134

----------
tested on: K4 kissing-loop RNA reporter; test: apparent KD of K4 kissing-loop reporter; higher = weaker reporter binding; conditions: Eterna round: R107; input ligand: FMN 200 uM;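 further: bound reporter read as fluorescence of individual clusters on recovered sequencing chips by microscopy, with normalized cluster intensities fitted with a binding model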

Polymer sequence: UUUUAAAUGUCUGAUACCAGAGAAAAUAUAUGUAGUGAUGUUAUAUACAAAUUGAAUAAGCUCCCUUGGCAGCAGUAUUAAUUUU [AstrosExc-TheB#11]
apparent KD of K4 kissing-loop reporter, nM: 493
--
Polymer sequence: UGAUACCAGACGGCCGCCACUGGGACCGGGAGUGAUGUUCCAAAUAAAAGAAGCUCGGCCGCCACUAGGACCGGGUCUGGUAUCU [TrypBX 21 #DoubleAptamer #SwitchBubble]
apparent KD of K4 kissing-loop reporter, nM: 395
--
Polymer sequence: CCUUGAGAGUGAUGUUCUCGAGUGAAAGUCAAGGAUAUCCCGCGGUGGAGAAGGUGAUGGCGAACUUGACUGCUGUCAGUCCUAA [theeternabot_exclusion_KL_FMN_A_10]
apparent KD of K4 kissing-loop reporter, nM: 104

Values compiled from the supplement of paper PMC9170038.
